// provenance: patent US20260132123A1

Target: 17β-HSD10 (Homo sapiens, UniProt Q99714)
Construct: Histev (histidine tag with TEV site) (N, cleaved yes); made in house; host or cells: E. coli BL21-CodonPlus
Sequence (Q99714 whole entry): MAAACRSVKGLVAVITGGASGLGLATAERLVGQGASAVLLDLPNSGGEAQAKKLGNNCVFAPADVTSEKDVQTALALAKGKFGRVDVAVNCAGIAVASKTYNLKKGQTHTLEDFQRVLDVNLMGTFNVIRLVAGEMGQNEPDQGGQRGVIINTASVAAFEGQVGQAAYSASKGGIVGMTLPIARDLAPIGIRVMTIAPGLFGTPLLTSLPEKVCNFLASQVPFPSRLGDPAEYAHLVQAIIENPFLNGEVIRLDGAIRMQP
Experiment: 17β-HSD10 (ABAD) enzyme inhibition assay, NADH oxidation read at 340 nm (primary screen and dose response)
Type: biochemical
Conditions: recombinant 17βHSD10 enzyme assay, curve fit
observation type: Hill Slope

The examples below pair each entry with its known result.
So for COc1cccc(-c2ccccc2[C@@H]2CCCN2C(=O)c2cn[nH]c2)c1 (racemic) [ESC1002601] , the logged Hill Slope turned out to be 0.74

The compound listed as CC(C)CN(C(=O)c1ccccc1F)c1cccc(N(C)Cc2nccn2C)c1 [ESC1002202] shows Hill Slope equal to 1.3

Entry CCN(C(=O)c1ccccc1F)c1cccc(N(C)Cc2cnc[nH]2)c1 [ESC1002234] — recorded Hill Slope = 0.96

Sample CCCC(=O)N(CC(C)C)c1cccc(N(C)Cc2cnc[nH]2)c1 [ESC1002235] ; Hill Slope observed: 1.1

get_value(item= Cc1ccsc1C(=O)N1CCC[C@H]1c1ccccc1-c1cnn(C2CCOCC2)c1 [ESC1002341] , readout=Hill Slope) returns 0.87

(I) CC(C)CN(C(=O)c1ccccc1F)c1cccc(N(C)Cc2cccnc2)c1 [ESC1002210]
(II) Cc1ccsc1C(=O)N1CCC[C@H]1c1ccccc1-c1cccc(Cl)c1 [ESC1002321]
Request: // compare measured Hill Slope between I and II ; output the lower one Please indicate the selected item by its label.
Result: II
(II: 0.92, I: 1.4)

(A) CC(C)CN(C(=O)CCc1ccccc1)c1cccc(N(C)Cc2cnc[nH]2)c1 [ESC1002168]
(B) Cc1ccsc1C(=O)N1CCC[C@H]1c1ccccc1-c1ccc(Cl)cc1Cl [ESC1002340]
Request: Response body: label of entry with the larger Hill Slope; valid values A , B . API: response body contains the label of the selected item.
Result: B
